// data source = patent US20070020327A1

Tested Target: HLA-A*0201 (human)
Assay Procedure: competition for purified HLA with 125I-labelled standard peptide 941.01 [..] as competitor, gel filtration
Condition Label: scale: ratio
Experimental Endpoint: binding affinity ratio

Worked set:
• GVQRGNILNL (modifications not checked) [… (PSM position 252, 10-mer)] = 0.0001
• IATLGKLSGL (modifications not checked) [… (PAP position 188, 10-mer)] = 0.0002
• HLLSNDMCA (modifications not checked) [… (Kallikrein position 177, 9-mer)] = 0.002
• HTVPLSEDQL (modifications not checked) [… (PAP position 144, 10-mer)] = 0.0002
• ILNHMKRAT (modifications not checked) [… (PAP position 267, 9-mer)] = 0.0001
• ILLGRHSL (modifications not checked) [ILLGRHSL (PSA position 69, 8-mer)] = 0.001
• IAEAVGLPSI (modifications not checked) [… (PSM position 283, 10-mer)] = 0.0001
• GVLVHPQWV (modifications not checked) [… (Kallikrein position 52 / PSA position 48, 9-mer)] = 0.0003
• ILGGHRDSWV (modifications not checked) [… (PSM position 373, 10-mer)] = 0.0003
• IASKFSERL (modifications not checked) [… (PSM position 642, 9-mer)] = 0.0001

a = GVLVHPQWVLT (modifications not checked) [… (Kallikrein position 52 / PSA position 48, 11-mer)]
b = IALSVGCT (modifications not checked) [IALSVGCT (Kallikrein position 8, 8-mer)]
q: Which of the two items, a and b , has the greater recorded binding affinity ratio? Identify your pick by its label.
a: a

P = HVISNDVCA (modifications not checked) [… (PSA position 173, 9-mer)]
Q = IINEDGNEI (modifications not checked) [… (PSM position 130, 9-mer)]
q: From the recorded data, which exceeds the other in binding affinity ratio: P or Q ? Use the label to indicate which entry you chose.
a: Q
